Reference for the values: the supplement of paper PMC10724198

System: Saccharomyces cerevisiae
Experiment: protein stability index of tFT-peptide fusion (C-terminal peptide) (PSI (0-1 scale)); higher = more stable (slower turnover)
Conditions: genetic background: das1 deletion; temperature: 30 C
As shown below, each of these sequences has a reported protein stability index value.
Metric name: protein stability index

Residue string	Endpoint result
CASVCCFFAWIV	0.46
PWWDALLRARVC	0.435
SCFDRQIFVPVC	0.302
LSSRGGRCRRLV	0.652
FSFVVRMFFRIL	0.39
ALVGEVLWFQLV	0.651
GFLAVTVACVWR	0.154
SFIFFVSCFFIF	0.294
VFLSCFFVSWVV	0.226
YLFFVCLHLKAG	0.227
PHFDLLLCLSLN	0.676
VLLRSRLLRRLS	0.67
VAFLYCHFFYCI	0.391
FGALVVCFLTRC	0.342
FCFLLLVSFFFV	0.252
TYHRSYLLATVV	0.378
VLLCASPMLAVV	0.289
PLRRPPPRPPWP	0.674
FGVRRSFVVFVV	0.337
PPPAPPLSMPAP	0.665
FPVWTALLTVRA	0.181
SSLTFTFAILLY	0.207
VYTVGFVCWLVY	0.208
RIVSGVVLLVFV	0.237
VLILFFLVVFYV	0.267
SNFDVRRLLVIQ	0.588
VCYLMRSLTFAY	0.345
LFFFVFFVLFSV	0.218
SFSRLWSLFRCL	0.682
ASWRYMFPVTLG	0.555
PHLDLYRLSALI	0.668
LLSYMVSLVVYL	0.175
GEGISCLLRRLT	0.661
ARWRVGLWRGAS	0.648
LVPVWVGLRVLF	0.354

====

Measured protein stability index, listed per entry for reference.
System: Saccharomyces cerevisiae
Experiment: protein stability index of tFT-peptide fusion (C-terminal peptide) (PSI (0-1 scale)); higher = more stable (slower turnover)
Conditions: genetic background: wild type; temperature: 30 C

Residue string	protein stability index
GHVRVVVRRRVI	0.581
PLPPPLPPTLPL	0.72
APLFLPPPSLFF	0.693
RPYLSPPPPTSP	0.687
LRKNRKHINKKI	0.626
SPTIRPDESPVQ	0.689
HLRSALSVHPTL	0.707

====

Property: protein stability index; scope: individual sequences
Tested on: Saccharomyces cerevisiae
Experiment: protein stability index of tFT-peptide fusion (C-terminal peptide) (PSI (0-1 scale)); higher = more stable (slower turnover)
Conditions: genetic background: wild type; temperature: 30 C
Metric name: protein stability index

Residue string	Test system	Endpoint result
GLNLDLSGRLAF	Saccharomyces cerevisiae	0.703
LALVGGACVGRV	Saccharomyces cerevisiae	0.65
IGLVRPSGTQQT	Saccharomyces cerevisiae	0.676

====

Test system: Saccharomyces cerevisiae
Assay: protein stability index of tFT-peptide fusion (C-terminal peptide) (PSI (0-1 scale)); higher = more stable (slower turnover)
Conditions: genetic background: wild type; temperature: 30 C
Below, each entry is listed alongside its reported protein stability index.

Residue string	protein stability index
NTNELTDEHRWI [PHO2 C-terminal 12 aa]	0.668
YLGAKTGSLIDF [KAR5 C-terminal 12 aa]	0.721
KPRWYRIWNFWC [GAP1 C-terminal 12 aa]	0.419
ARTKRLVQFEAR [RPC10 C-terminal 12 aa]	0.717
ARKFWTEDNNNL [STE2 C-terminal 12 aa]	0.691
